- experimentNotes: RLM metabolic stability (% remaining)
- conditions: 10000 (unit not given)
measurementKind: RLM 10000 % REM.
Reply with the number and its unit after it.

Return reported RLM 10000 % REM. values for all items listed beneath this line.
1. CCN(CC)C(=O)c1ccc(N(c2cccc(O)c2)C2CCN(Cc3ccccc3)CC2)cc1 [Example 1]
2. CCN(CC)C(=O)c1ccc(N(c2cccc(O)c2)C2CCN(Cc3cccs3)CC2)cc1 [Example 28]
3. CCN(CC)C(=O)c1ccc(N(c2cccc(O)c2)C2CCN(Cc3ccc(Cl)cc3Cl)CC2)cc1 [Example 23]
4. CCN(CC)C(=O)c1ccc(N(c2cccc(O)c2)C2CCN(Cc3ccc(Cl)cc3)CC2)cc1 [Example 21]
5. CCN(CC)C(=O)c1ccc(N(c2cccc(O)c2)C2CCN(Cc3ccc(I)cc3)CC2)cc1 [Example 19]
6. CCN(CC)C(=O)c1ccc(N(c2cccc(O)c2)C2CCN(Cc3ccccn3)CC2)cc1 [Example 30]
7. CCN(CC)C(=O)c1ccc(N(c2cccc(O)c2)C2CCN(Cc3ccccc3F)CC2)cc1 [Example 25]

A:
1. 4.333%
2. 1.5%
3. 20.5%
4. 2.333%
5. 0%
6. 31%
7. 4%

Q: Please report the recorded RLM 10000 % REM. for CCN(CC)C(=O)c1ccc(N(c2cccc(O)c2)C2CCN(Cc3cccc(F)c3)CC2)cc1 [Example 24] .
A: 3.5%

###

- experimentNotes: RLM metabolic stability (% remaining)
- conditions: 10000 (unit not given)
measurementKind: RLM 10000 % REM. (%)
One number for each entry, in %.

Consider the reported RLM 10000 % REM. for these compounds:
| compound | RLM 10000 % REM., % |
| --- | --- |
| CCN(CC)C(=O)c1ccc(N(c2cccc(O)c2)C2CCN(Cc3ccsc3)CC2)cc1 [Example 16] | 1.5 |
| CCN(CC)C(=O)c1ccc(N(c2cccc(O)c2)C2CCN(Cc3ccc(F)cc3)CC2)cc1 [Example 22] | 17 |
| CCN(CC)C(=O)c1ccc(N(c2cccc(O)c2)C2CCN(Cc3ccc(Br)cc3)CC2)cc1 [Example 20] | 4.5 |
| CCN(CC)C(=O)c1ccc(N(c2cccc(O)c2)C2CCN(Cc3ccc(C)cc3)CC2)cc1 [Example 26] | 3.5 |

Please give RLM 10000 % REM. for each item listed below.
1. CCN(CC)C(=O)c1ccc(N(c2cccc(O)c2)C2CCN(Cc3ccoc3)CC2)cc1 [Example 15]
2. CCN(CC)C(=O)c1ccc(N(c2cc(O)ccc2F)C2CCN(Cc3ccccc3)CC2)cc1 [Example 6]
3. CCN(CC)C(=O)c1ccc(N(c2cccc(O)c2)C2CCN(Cc3ccco3)CC2)cc1 [Example 27]
4. CCN(CC)C(=O)c1ccc(N(c2cccc(O)c2)C2CCN(Cc3ncc[nH]3)CC2)cc1 [Example 29]

A:
[8, 5.333, 3.5, 36.5]

###

- experimentNotes: MLM metabolic stability (% remaining)
- conditions: 10000 (unit not given)
measurementKind: MLM 10000 % REM. (%)
Numbers only, in %.

// known answers, use as guide
| smi | readoutNumber |
| --- | --- |
| CCN(CC)C(=O)c1ccc(N(c2cccc(O)c2)C2CCN(Cc3ccoc3)CC2)cc1 | 3.5 |
| CCN(CC)C(=O)c1ccc(N(c2cccc(O)c2)C2CCN(Cc3ccccc3F)CC2)cc1 | 0 |
| CCN(CC)C(=O)c1ccc(N(c2cccc(O)c2)C2CCN(Cc3ccccc3)CC2)cc1 | 10.4 |
| CCN(CC)C(=O)c1ccc(N(c2cccc(O)c2)C2CCN(Cc3cccs3)CC2)cc1 | 1.5 |

Below is a list of compounds. For each, state its recorded MLM 10000 % REM..
1. CCN(CC)C(=O)c1ccc(N(c2cccc(O)c2)C2CCN(Cc3ccccn3)CC2)cc1
2. CCN(CC)C(=O)c1ccc(N(c2cccc(O)c2)C2CCN(Cc3ccsc3)CC2)cc1
3. CCN(CC)C(=O)c1ccc(N(c2cccc(O)c2)C2CCN(Cc3ccc(F)cc3)CC2)cc1
4. CCN(CC)C(=O)c1ccc(N(c2cccc(O)c2)C2CCN(Cc3cccc(F)c3)CC2)cc1

A:
[26, 5, 8.5, 3.5]

###

- experimentNotes: MLM metabolic stability (% remaining)
- conditions: 100000 (unit not given)
Exercise: for every item that follows, state its recorded MLM 100000 % REM..
Give bare numbers, in %.

| smi | measurementKind | readoutNumber |
| --- | --- | --- |
| CCN(CC)C(=O)c1ccc(N(c2cccc(O)c2)C2CCN(Cc3cccs3)CC2)cc1 | MLM 100000 % REM. | 80 |

For each of the items listed, what is its MLM 100000 % REM.?
1. CCN(CC)C(=O)c1ccc(N(c2cccc(O)c2)C2CCN(Cc3ccc(C)cc3)CC2)cc1
2. CCN(CC)C(=O)c1ccc(N(c2cccc(O)c2)C2CCN(Cc3ccsc3)CC2)cc1
3. CCN(CC)C(=O)c1ccc(N(c2cccc(O)c2)C2CCN(Cc3ccccc3)CC2)cc1
4. CCN(CC)C(=O)c1ccc(N(c2cccc(O)c2)C2CCN(Cc3ccc(Cl)cc3Cl)CC2)cc1

A:
1. 86
2. 83
3. 85.2
4. 93

###

- experimentNotes: RLM metabolic stability (% remaining)
- conditions: 100000 (unit not given)
I'd be grateful if you could share measured RLM 100000 % REM. for these entries.
Give the number first and the unit second.

| smi | RLM 100000 % REM. |
| --- | --- |
| CCN(CC)C(=O)c1ccc(N(c2cccc(O)c2)C2CCN(Cc3ccccc3F)CC2)cc1 | 71% |

Dear colleague, could you please provide RLM 100000 % REM. for the compounds listed below?
1. CCN(CC)C(=O)c1ccc(N(c2cccc(O)c2)C2CCN(Cc3ccc(Br)cc3)CC2)cc1
2. CCN(CC)C(=O)c1ccc(N(c2cccc(O)c2)C2CCN(Cc3ccc(Cl)cc3)CC2)cc1
3. CCN(CC)C(=O)c1ccc(N(c2cccc(O)c2)C2CCN(Cc3ncc[nH]3)CC2)cc1
4. CCN(CC)C(=O)c1ccc(N(c2cccc(O)c2)C2CCN(Cc3ccccn3)CC2)cc1
5. CCN(CC)C(=O)c1ccc(N(c2cccc(O)c2)C2CCN(Cc3ccc(F)cc3)CC2)cc1
6. CCN(CC)C(=O)c1ccc(N(c2cccc(O)c2)C2CCN(Cc3ccc(C)cc3)CC2)cc1
7. CCN(CC)C(=O)c1ccc(N(c2cccc(O)c2)C2CCN(Cc3ccccc3)CC2)cc1

A:
["51.5%", "45%", "74.5%", "74%", "63%", "63.5%", "66.125%"]

###

- experimentNotes: MLM metabolic stability (% remaining)
- conditions: 10000 (unit not given)
condition met if MLM 10000 % REM. is below 6%. condition not met if not; exact matches included in condition not met.

Q: Identify whether the compound CCN(CC)C(=O)c1ccc(N(c2cc(O)ccc2F)C2CCN(Cc3ccccc3)CC2)cc1 records MLM 10000 % REM. below 6%.
A: condition met

Q: Is MLM 10000 % REM. of CCN(CC)C(=O)c1ccc(N(c2cccc(O)c2)C2CCN(Cc3ccc(I)cc3)CC2)cc1 strictly below 6%?
A: condition not met

Q: For CCN(CC)C(=O)c1ccc(N(c2cccc(O)c2)C2CCN(Cc3ccc(Br)cc3)CC2)cc1 , is the recorded MLM 10000 % REM. below the cut-off of 6%?
A: condition not met

Q: Given CCN(CC)C(=O)c1ccc(N(c2cccc(O)c2)C2CCN(Cc3ccc(C)cc3)CC2)cc1 , is recorded MLM 10000 % REM. strictly lower than 6%?
A: condition not met

Q: Is it true that MLM 10000 % REM. reported for CCN(CC)C(=O)c1ccc(N(c2cccc(O)c2)C2CCN(Cc3ccc(Cl)cc3Cl)CC2)cc1 is less than 6%?
A: condition not met

Q: Could you please tell me whether MLM 10000 % REM. recorded for CCN(CC)C(=O)c1ccc(N(c2cccc(O)c2)C2CCN(Cc3ccc(Cl)cc3)CC2)cc1 is less than 6%?
A: condition not met

Q: Please let me know if CCN(CC)C(=O)c1ccc(N(c2cccc(O)c2)C2CCN(Cc3ccco3)CC2)cc1 shows MLM 10000 % REM. below 6%.
A: condition met

###

For each entry below, report its MLM 100000 % REM. value.
- experimentNotes: MLM metabolic stability (% remaining)
- conditions: 100000 (unit not given)
Provide a numeric answer, followed by its unit.

| smi | measurementKind | result |
| --- | --- | --- |
| CCN(CC)C(=O)c1ccc(N(c2cccc(O)c2)C2CCN(Cc3ccc(Br)cc3)CC2)cc1 | MLM 100000 % REM. | 81.5% |

# return MLM 100000 % REM. for each item in the list
1. CCN(CC)C(=O)c1ccc(N(c2cccc(O)c2)C2CCN(Cc3ccc(Cl)cc3)CC2)cc1
2. CCN(CC)C(=O)c1ccc(N(c2cccc(O)c2)C2CCN(Cc3ncc[nH]3)CC2)cc1
3. CCN(CC)C(=O)c1ccc(N(c2cccc(O)c2)C2CCN(Cc3ccc(F)cc3)CC2)cc1

A:
85%
92.5%
85%
